Hey, just so you know, these numbers are from paper PMC10733349.

Could you please report measured MIC for the items listed next?
- System: Staphylococcus aureus
- assay: Antimicrobial microplate assay (MIC), S. aureus
- Format: cell-based
- conditions: Staph. aureus; two values per compound
Please respond with the number in µM and leave the unit unwritten.

Measured MIC, O=C(NCCNc1ccnc2cc(Cl)ccc12)c1cc2ccccc2oc1=O [7b] : 22

Sure, the documented MIC for O=C(O)c1cc2ccccc2oc1=O [compound 1, coumarin-3-carboxylic acid, reference compound] is 8.5

The compound listed as O=C(Nc1ccc(Cc2ccc(Nc3ccnc4cc(Cl)ccc34)cc2)cc1)c1cc2ccccc2oc1=O [7e] shows MIC equal to 24

Record O=C(Nc1ccc(Nc2ccnc3cc(Cl)ccc23)cc1)c1cc2ccccc2oc1=O [7d] . Reported MIC: 30

Per the record, O=C(NCCNc1c2ccccc2nc2ccccc12)c1cc2ccccc2oc1=O [10b] has MIC of 3.2

get_value(item= O=c1ccc2ccccc2o1 [Ct, coumarin] , readout=MIC) returns 63

// recorded MIC for O=C(NCCCNc1ccnc2cc(Cl)ccc12)c1cc2ccccc2oc1=O [7c] : 29

The compound identified as O=C(NNc1ccnc2cc(Cl)ccc12)c1cc2ccccc2oc1=O [7a] registered its MIC at 31
